Target: T1, human SLC34A2 (human, UniProt O95436 1-690)
T1 sequence (looked up): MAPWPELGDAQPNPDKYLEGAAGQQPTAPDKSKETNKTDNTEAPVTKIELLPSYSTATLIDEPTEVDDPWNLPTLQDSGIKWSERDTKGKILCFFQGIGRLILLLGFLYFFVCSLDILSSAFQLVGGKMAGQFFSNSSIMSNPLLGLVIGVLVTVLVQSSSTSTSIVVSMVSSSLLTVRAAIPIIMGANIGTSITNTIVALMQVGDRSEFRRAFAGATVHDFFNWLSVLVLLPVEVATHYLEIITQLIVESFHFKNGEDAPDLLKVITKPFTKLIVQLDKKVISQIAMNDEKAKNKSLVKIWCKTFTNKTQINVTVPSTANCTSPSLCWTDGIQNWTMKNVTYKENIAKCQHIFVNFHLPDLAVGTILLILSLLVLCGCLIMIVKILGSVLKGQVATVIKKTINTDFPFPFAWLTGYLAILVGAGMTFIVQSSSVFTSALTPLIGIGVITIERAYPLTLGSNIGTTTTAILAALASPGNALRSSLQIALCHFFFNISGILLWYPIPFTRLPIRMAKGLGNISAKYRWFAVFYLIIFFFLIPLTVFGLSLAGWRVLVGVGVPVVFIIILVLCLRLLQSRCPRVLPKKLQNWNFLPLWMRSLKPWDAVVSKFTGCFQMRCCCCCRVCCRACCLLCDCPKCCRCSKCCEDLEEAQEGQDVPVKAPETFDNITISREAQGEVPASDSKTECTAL
Assay: cell-based or functional assay
parameter: ADCC-OVCAR3

State recorded ADCC-OVCAR3 for all listed binders.
1. 62G10E4G8.p3.z15 hIgG1 (antibody, V domains shown, humanized hIgG1) VH: QVQLVQSGAEVVKPGASVKMSCKASGYTFPSYITHWVKQAPGQGLEWIGAIYPGNADTSYIQKFKGRATLTADKSTSTAYMELSSLRSEDTAVYYCARGTYGTSAWFTYWGQGTLVTVSS VL: EIVLTQSPATLSVSPGERATLSCRARQNIGNNLYWYQQKPGQSPRLLIKYASQSISGIPSRFSGSGSGTDFTLTISSLQSEDFAVYFCQQSFSWPLTFGQGTKLEIK
2. 63A11D5B4.p1.z9 hIgG1 (antibody, V domains shown, humanized hIgG1) VH: QVQLVQSGAEVVKPGASVKMSCKTSGYTFITYNMHWVRQAPGQGLEWIGAIYPGSGDTSYNQKFKGRVTLTADKSTSTAYMELSSLRSEDTAVYYCSISTIITTGAVDYWGQGTLVTVSS VL: DIQMTQSPSSLSASVGDRVTITCKASQDVGTAVAWYQQKPGKVPKLLIYWTSTRHTGVPSRFSGSGSGTDFTLTISSLQPEDVATYYCQQYSRIPLTFGGGTKVEIK
3. 30H9B8F9.p1.z5 hIgG1 (antibody, V domains shown, humanized hIgG1) VH: QVQLVQSGAEVKKPGASVKVSCKTSGYTFTTNNMHWVRQAPGQGLEWIGAIYPGSGATAYNQKFKGRVTMTADTSTSTVYMELSSLRSEDTAVYYCARGMYGHGAMDYWGQGTLVTVSS VL: DIQLTQSPSFLSASVGDRVTITCKASQDVGTAVAWYQQKPGKAPKLLIYWATTRHSGVPSRFSGSGSGTEFTLTISSLQPEDFATYYCQQYSSNPLTFGQGTKLEIK
4. 91C9F1.p1.z7 hIgG1 (antibody, V domains shown, humanized hIgG1) VH: QVQLVQSGAEVKKPGSSVKVSCKTSGFFFTEYIIHWVRQAPGQGLEWIGGIIPNNDVTNYKQNFRGRVTLTADKSTSTAYMELSSLRSEDTAVYYCARWRNAYYSAMDSWGQGTTVTVSS VL: DIQVTQSPSSLSTSVGDRVTITCTASQDVGTAVAWYQQKPGKSPKLLIYWASTRHTGVPERFTGSGSGTDFTLTISSVQPEDVATYFCQQYRTSPLTFGVGTKVEIK

Resp:
1. 0.56 nM
2. 0.3 nM
3. 0.16 nM
4. 0.15 nM
